- assayProtocol: in vivo
- cond: rat, iv, 1 mg/kg

{"compound": "Fc1ccc(-c2cn3c(-c4ccc5[nH]ncc5c4F)c(C(F)(F)F)nc3cn2)cc1C(F)(F)F [LSHTM-3642]", "Vd / L/kg": 8.8}

* * *

- assayProtocol: In vivo efficacy, mouse model of juvenile (21-day old) S. mansoni infection
- cond: female, CD1, plasma; mouse, Juvenile infection, oral 25 mg/kg, formulation corn oil; read-out: Plasma conc @24 h (efficacy experiment)
- Procedure: Prior to in vivo efficacy experiments, a single animal was given a dose of drug (using the same formulation) that was twice as large as that planned for use in the efficacy experiments and was observed periodically for adverse clinical signs for 24h by trained veterinarians. […] In vivo efficacy was assessed in female CD1 mice using methods based on those previously described. […] Worms were recovered by portal perfusion with citrate saline 8–14 days post treatment and counted. […]

{"compound": "CC(C)c1nc2cnc(-c3ccc(F)c(C(F)(F)F)c3)cn2c1-c1ccc2[nH]ncc2c1F [LSHTM-3604]", "concentration at 24 h": "223 ng/mL"}
